# target_system: RIPK1 (receptor interacting serine/threonine protein kinase 1) (Homo sapiens, UniProt Q13546)
# Construct: Flag-RIPK1 immunoprecipitated from HEK293T cells
# Sequence (Q13546 whole entry): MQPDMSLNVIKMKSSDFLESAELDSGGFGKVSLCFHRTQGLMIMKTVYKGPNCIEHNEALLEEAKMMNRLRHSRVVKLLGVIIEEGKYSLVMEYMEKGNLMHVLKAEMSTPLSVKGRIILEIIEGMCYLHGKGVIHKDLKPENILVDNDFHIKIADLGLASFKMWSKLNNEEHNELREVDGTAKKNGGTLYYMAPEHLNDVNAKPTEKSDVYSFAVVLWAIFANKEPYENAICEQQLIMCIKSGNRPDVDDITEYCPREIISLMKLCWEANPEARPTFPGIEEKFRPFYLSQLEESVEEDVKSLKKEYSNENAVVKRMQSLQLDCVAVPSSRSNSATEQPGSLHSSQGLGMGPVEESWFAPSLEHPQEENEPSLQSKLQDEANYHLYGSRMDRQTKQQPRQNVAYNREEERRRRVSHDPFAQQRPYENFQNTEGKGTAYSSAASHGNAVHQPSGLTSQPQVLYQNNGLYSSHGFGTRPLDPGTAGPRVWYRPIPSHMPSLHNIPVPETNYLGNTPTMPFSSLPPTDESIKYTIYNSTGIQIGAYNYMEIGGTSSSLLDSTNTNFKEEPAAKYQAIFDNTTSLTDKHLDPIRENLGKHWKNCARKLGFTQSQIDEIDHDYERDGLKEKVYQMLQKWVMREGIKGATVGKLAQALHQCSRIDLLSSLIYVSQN
# method_summary: in vitro kinase assay on immunoprecipitated Flag-RIPK1 (Kinase-Glo; p-S166 western blot)
recorded_metric: IC50 (nM)
Answer with a number only, understood to be in nM.

(Q) Entry CN1C(=O)[C@@H](Cc2c[nH]c3c(Cl)c(F)ccc23)N(C=O)C1=O has what IC50?
(A) 366
